Reported IC50 values are given for each entry in this list.
system-name: Avi-KRAS G12V (1-169) GppNHp/RAF1 RBD-3xFLAG (52-151) (Homo sapiens, UniProt P01116, G12V)
Construct: Avi-KRAS G12V (1-169)
Sequence (P01116 1-169 isoform P01116-2 G12V): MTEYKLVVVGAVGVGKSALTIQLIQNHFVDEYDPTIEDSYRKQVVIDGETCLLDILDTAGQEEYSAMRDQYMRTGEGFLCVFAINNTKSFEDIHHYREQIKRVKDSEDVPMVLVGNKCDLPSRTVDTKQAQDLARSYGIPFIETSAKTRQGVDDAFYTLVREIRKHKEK
measurement-notes: Raf1-KRAS G12V-GppNHP disruption HTRF assay (Biological Example 1)
Type: binding
reported-conditions: KRAS G12V, GppNHp-loaded; class symbols
Method: A protein:protein interaction (PPI) Homogeneous Time Resolved Fluorescence (HTRF) assay was used to determine the effectiveness of compounds of the present disclosure in disrupting KRAS protein and effector RAF1 binding. The assay buffer included: 50 mM Tris pH 7.5, 100 mM NaCl, 5 mM MgCl2, 0.1% BSA, 0.01% Tween, and 10% DMSO. The bead buffer included: 50 mM Tris pH 7.5, and 0.01% Tween 20. […] Data was reported as percentage of activity, with DMSO as 100%. Data was plotted and analyzed using Prism 8.
measured-attribute: IC50

molecule	measured-attribute	result
[2H]C([2H])([2H])OC(=O)N1CC[C@H](N(CC)c2nc(OC[C@@]34CCCN3C[C@H](F)C4)nc3c(F)c(-c4ccc(F)c5sc(N)c(C#N)c45)c(C(F)(F)F)cc23)C1 (atropisomer, axis not shown)	IC50	< 0.1 µM
CCN(c1nc(OC[C@@]23CCCN2C[C@H](F)C3)nc2c(F)c(-c3ccc(F)c4sc(N)c(C#N)c34)c(C(F)(F)F)cc12)[C@@H]1CC(=O)N(C2CC2)C1 (atropisomer, axis not shown)	IC50	1 to 10 µM
CCN(c1nc(OC[C@@]23CCCN2C[C@H](F)C3)nc2c(F)c(-c3ccc(F)c4sc(N)c(C#N)c34)c(C(F)(F)F)cc12)[C@H]1CC(=O)N(CCF)C1 (atropisomer, axis not shown)	IC50	0.1 to 1 µM
CCN(c1nc(OC[C@@]23CCCN2C[C@H](F)C3)nc2c(F)c(-c3ccc(F)c4sc(N)c(C#N)c34)c(C(F)(F)F)cc12)[C@H]1CCN(C(=O)c2ccncn2)C1 (atropisomer, axis not shown)	IC50	< 0.1 µM
N#Cc1c(N)sc2c(F)ccc(-c3c(C(F)(F)F)cc4c(N5CCn6nc(C(=O)N7CCCC7)cc6C5)nc(OCC56CCCN5CC(F)C6)nc4c3F)c12 (stereo not drawn)	IC50	< 0.1 µM
CCN(c1nc(OC[C@@]23CCCN2C[C@H](F)C3)nc2c(F)c(-c3ccc(F)c4sc(N)c(C#N)c34)c(C(F)(F)F)cc12)[C@@H]1CC(=O)N(CC(F)F)C1 (atropisomer, axis not shown)	IC50	< 0.1 µM
CCN(c1nc(OC[C@@]23CCCN2C[C@H](F)C3)nc2c(F)c(-c3ccc(F)c4sc(N)c(C#N)c34)c(C(F)(F)F)cc12)[C@H]1CCN(C(=O)N2CC(F)C2)C1 (atropisomer, axis not shown)	IC50	< 0.1 µM
CC(C)C(=O)N1CC[C@H](N(C)c2nc(OC[C@@]34CCCN3C[C@H](F)C4)nc3c(F)c(-c4ccc(F)c5sc(N)c(C#N)c45)c(C(F)(F)F)cc23)C1 (atropisomer, axis not shown)	IC50	0.1 to 1 µM
N#Cc1c(N)sc2c(F)ccc(-c3c(C(F)(F)F)cc4c(N5C[C@H]6C[C@@H]5CO6)nc(OC[C@]56C[C@@H](F)CN5CC5(CC5)C6)nc4c3F)c12	IC50	1 to 10 µM
CCN(c1nc(OC[C@@]23CCCN2C[C@H](F)C3)nc2c(F)c(-c3ccc(F)c4sc(N)c(C#N)c34)c(C(F)(F)F)cc12)[C@@H]1CCN(C(=O)[C@@H]2CC2(F)F)[C@@H]1C (atropisomer, axis not shown)	IC50	< 0.1 µM
CCN(c1nc(OC[C@@]23CCCN2C[C@H](F)C3)nc2c(F)c(-c3ccc(F)c4sc(N)c(C#N)c34)c(C(F)(F)F)cc12)[C@H]1CCN(C(=O)N(C)C)[C@H]1C (atropisomer, axis not shown)	IC50	1 to 10 µM
CC(C)C(=O)N1CC[C@H](N(CCF)c2nc(OC[C@@]34CCCN3C[C@H](F)C4)nc3c(F)c(-c4ccc(F)c5sc(N)c(C#N)c45)c(C(F)(F)F)cc23)C1 (atropisomer, axis not shown)	IC50	0.1 to 1 µM
CCN(c1nc(OC[C@@]23CCCN2C[C@H](F)C3)nc2c(F)c(-c3ccc(F)c4sc(N)c(C#N)c34)c(C(F)(F)F)cc12)[C@H]1CCN(C(=O)OC2CCN(C(C)=O)C2)C1 (stereo partly drawn)	IC50	< 0.1 µM
CC1c2cc(C(=O)N(C)C)nn2CCN1c1nc(OCC23CCCN2CC(F)C3)nc2c(F)c(-c3ccc(F)c4sc(N)c(C#N)c34)c(C(F)(F)F)cc12 (stereo not drawn) [Compound 701]	IC50	1 to 10 µM
CCN(c1nc(OC[C@@]23CCCN2C[C@H](F)C3)nc2c(F)c(-c3ccc(F)c4sc(N)c(C#N)c34)c(C(F)(F)F)cc12)[C@H]1CCN(C(=O)c2cncnc2)C1 (atropisomer, axis not shown)	IC50	0.1 to 1 µM

The values you see were collected from patent US20260042764A1.
